Molecular target: T1, TNFR1 (Homo sapiens, UniProt P19438)
T1 chain: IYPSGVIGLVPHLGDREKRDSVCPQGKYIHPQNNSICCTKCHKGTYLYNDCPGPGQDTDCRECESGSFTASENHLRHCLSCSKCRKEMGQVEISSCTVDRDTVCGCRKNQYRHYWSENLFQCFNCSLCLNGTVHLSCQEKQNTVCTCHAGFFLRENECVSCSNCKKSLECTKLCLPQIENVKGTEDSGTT
Experiment: yeast display SC50
# apparent Kd (screen) per record follows
The reply should contain only the number, in pM.

See these solved cases before continuing.
>  <binder>
K15W (designed binder) SMEEEVEKAAKEYEWKKKEAIEKHLEKLKAKDKEAAERFLKELEEAAKEYAKDEAKTMSEEEAKRRAKKYKEKVLLSELSEEEQKEIKEAEEKLVRTILKYVEEAAK

>  <readout-label>
apparent Kd (screen)

>  <measured-result>
1160

$$$$
>  <binder>
E86C (designed binder) SMEEEVEKAAKEYEKKKKEAIEKHLEKLKAKDKEAAERFLKELEEAAKEYAKDEAKTMSEEEAKRRAKKYKEKVLLSELSEEEQKCIKEAEEKLVRTILKYVEEAAK

>  <readout-label>
apparent Kd (screen)

>  <measured-result>
653

$$$$
>  <binder>
R38Y (designed binder) SMEEEVEKAAKEYEKKKKEAIEKHLEKLKAKDKEAAEYFLKELEEAAKEYAKDEAKTMSEEEAKRRAKKYKEKVLLSELSEEEQKEIKEAEEKLVRTILKYVEEAAK

>  <readout-label>
apparent Kd (screen)

>  <measured-result>
490

$$$$

Proceed to the following item.
Lab book: apparent Kd (screen) of K71Y (designed binder) SMEEEVEKAAKEYEKKKKEAIEKHLEKLKAKDKEAAERFLKELEEAAKEYAKDEAKTMSEEEAKRRAKKYYEKVLLSELSEEEQKEIKEAEEKLVRTILKYVEEAAK noted as 1050
